The reported numbers originate from patent US20100311820.

Target: T1, Glycoprotein VI extracellular domain (Gln21-Lys267) (Homo sapiens, UniProt Q9HCN6 SEQ:1-247)
T1 chain: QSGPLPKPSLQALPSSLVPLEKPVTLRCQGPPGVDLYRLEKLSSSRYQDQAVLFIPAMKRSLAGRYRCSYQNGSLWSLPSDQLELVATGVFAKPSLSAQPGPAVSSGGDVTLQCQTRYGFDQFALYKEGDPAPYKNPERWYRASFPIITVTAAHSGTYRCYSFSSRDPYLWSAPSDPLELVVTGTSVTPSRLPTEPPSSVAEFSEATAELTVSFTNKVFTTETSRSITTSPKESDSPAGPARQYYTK
Experiment: filter; text p359 names it EF-3 T2 mut9
Conditions: tags: C-terminal His6; R&D Systems 3627-GP; label: 5'-32P
pKd: −log10 of the molar value.
metricName: pKd

>  <binder>
GGGAGGACGGCGAUCACACGCCUUGCAUAAGCCUCCC (ssRNA, 2'-F C and U; 2'-OH A and G) [EF-3 T5 mut9]

>  <numericReadout>
7.81

$$$$
